Taken from ChEMBL document CHEMBL1138278.

- Tested on: Rattus norvegicus
- Test Method Notes: Antiarthritic activity against adjuvant-induced arthritis in Wistar rat assessed as weight change at 100 mg/kg, po
- Type: functional
Quantity Name: Activity (g)
Answer in g, number only, no unit symbol.

Examples with their reported Activity follow.
[
  {
    "Compound": "COc1cc2c(cc1OC)C(CC(=O)Nc1ccncc1)CC2 (stereo not given)",
    "Activity [g]": 4.25
  },
  {
    "Compound": "COc1cc2c(cc1OC)C(CC(=O)Nc1ccc([N+](=O)[O-])cc1)CC2 (stereo not given)",
    "Activity [g]": 4.01
  },
  {
    "Compound": "COc1cc2c(cc1OC)C(CC(=O)Nc1ccc(Cl)cc1)CC2 (stereo not given)",
    "Activity [g]": 3.51
  }
]

Query: Return reported Activity; argument: COc1cc2c(cc1OC)C(CC(=O)Nc1cccc(C)c1)CC2 (stereo not given)
Reply: 4.56

Query: Param item: COc1cc2c(cc1OC)C(CC(=O)Nc1cccc(Cl)c1)CC2 (stereo not given)
Reply: 7.21
